Item-by-item account of viscosity
test_description: xn = mol fraction of the nth substance listed
condition: 308.15 K; 100 kPa; Liquid; Concentric cylinders viscometry; x2 = 0.25
property_measured: viscosity (mPa·s)

>>> recorded_measurement("CCCCn1cc[n+](C)c1.F[P-](F)(F)(F)(F)F [1-butyl-3-methylimidazolium hexafluorophosphate] + CCCC[n+]1ccn(C)c1.O=S(=O)([N-]S(=O)(=O)C(F)(F)F)C(F)(F)F")
90.44
>>> recorded_measurement("CCCCn1cc[n+](C)c1.COP(=O)([O-])OC [1-butyl-3-methyl-1H-imidazolium dimethylphosphate] + CCCC[n+]1ccn(C)c1.O=S(=O)([N-]S(=O)(=O)C(F)(F)F)C(F)(F)F")
224.53
>>> recorded_measurement("CC(=O)[O-].CCCCn1cc[n+](C)c1 [1-butyl-3-methylimidazolium acetate] + CCCC[n+]1ccn(C)c1.O=S(=O)([N-]S(=O)(=O)C(F)(F)F)C(F)(F)F")
104
>>> recorded_measurement("CCCCn1cc[n+](C)c1.O=S(=O)([O-])C(F)(F)F [1-butyl-3-methylimidazolium trifluoromethanesulfonate] + CCCC[n+]1ccn(C)c1.O=S(=O)([N-]S(=O)(=O)C(F)(F)F)C(F)(F)F")
46.66
>>> recorded_measurement("CCCCn1cc[n+](C)c1.N#C[S-] [1-butyl-3-methylimidazolium thiocyanate] + CCCC[n+]1ccn(C)c1.O=S(=O)([N-]S(=O)(=O)C(F)(F)F)C(F)(F)F")
40.42
